Biological target: HRgpA-6H (Porphyromonas gingivalis) (UniProt P28784)
Experiment: ELISA, coated HRgpA-6H
Give Ratio OD(Variant)/OD(WT) for every item shown.
Answer field: number only, no words.

Recorded Ratio OD(Variant)/OD(WT) of KB001 mouse Fab VH Y106K (Fab, V domains shown) VH: EVQLKQSGPGLVAPSQSLSITCTVSGFSLSIYSVHWVRQPPGKGLEWLGMIWGGGSSDYNSALKSRLSISKDNSKSQVFLKMNSLQTDDTAMYYCARNGNFYAMDKWGQGTSVTVSS VL: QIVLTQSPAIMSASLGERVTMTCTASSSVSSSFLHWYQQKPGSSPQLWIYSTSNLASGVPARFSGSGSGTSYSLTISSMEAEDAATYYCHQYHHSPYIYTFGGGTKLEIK , please. 1.05

Report Ratio OD(Variant)/OD(WT) for KB001 mouse Fab VH L29P (Fab, V domains shown) VH: EVQLKQSGPGLVAPSQSLSITCTVSGFSPSIYSVHWVRQPPGKGLEWLGMIWGGGSSDYNSALKSRLSISKDNSKSQVFLKMNSLQTDDTAMYYCARNGNFYAMDYWGQGTSVTVSS VL: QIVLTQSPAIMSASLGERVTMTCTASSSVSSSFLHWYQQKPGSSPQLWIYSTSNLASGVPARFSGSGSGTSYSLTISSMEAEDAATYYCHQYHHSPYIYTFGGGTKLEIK please. 0.867

GET /values?readout=Ratio OD(Variant)/OD(WT)&item= KB001 mouse Fab VH S28R (Fab, V domains shown) VH: EVQLKQSGPGLVAPSQSLSITCTVSGFRLSIYSVHWVRQPPGKGLEWLGMIWGGGSSDYNSALKSRLSISKDNSKSQVFLKMNSLQTDDTAMYYCARNGNFYAMDYWGQGTSVTVSS VL: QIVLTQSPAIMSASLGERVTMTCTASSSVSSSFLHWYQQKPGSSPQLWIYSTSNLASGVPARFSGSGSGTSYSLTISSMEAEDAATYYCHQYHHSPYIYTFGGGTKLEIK 0.848

Param item = KB001 mouse Fab VL S57E (Fab, V domains shown) VH: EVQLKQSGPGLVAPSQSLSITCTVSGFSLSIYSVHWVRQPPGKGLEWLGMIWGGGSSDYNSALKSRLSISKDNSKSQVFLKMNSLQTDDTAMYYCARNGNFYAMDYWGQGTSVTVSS VL: QIVLTQSPAIMSASLGERVTMTCTASSSVSSSFLHWYQQKPGSSPQLWIYSTSNLAEGVPARFSGSGSGTSYSLTISSMEAEDAATYYCHQYHHSPYIYTFGGGTKLEIK ; retrieve measured Ratio OD(Variant)/OD(WT). 1.03

Which measured Ratio OD(Variant)/OD(WT) value corresponds to KB001 mouse Fab VL T24N/G67D (Fab, V domains shown) VH: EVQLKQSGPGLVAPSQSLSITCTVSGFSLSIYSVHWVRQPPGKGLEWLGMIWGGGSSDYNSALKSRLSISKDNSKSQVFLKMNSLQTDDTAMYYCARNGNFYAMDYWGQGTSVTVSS VL: QIVLTQSPAIMSASLGERVTMTCNASSSVSSSFLHWYQQKPGSSPQLWIYSTSNLASGVPARFSGSDSGTSYSLTISSMEAEDAATYYCHQYHHSPYIYTFGGGTKLEIK ? 0.982

Please report the recorded Ratio OD(Variant)/OD(WT) for KB001 mouse Fab VH K64H (Fab, V domains shown) VH: EVQLKQSGPGLVAPSQSLSITCTVSGFSLSIYSVHWVRQPPGKGLEWLGMIWGGGSSDYNSALHSRLSISKDNSKSQVFLKMNSLQTDDTAMYYCARNGNFYAMDYWGQGTSVTVSS VL: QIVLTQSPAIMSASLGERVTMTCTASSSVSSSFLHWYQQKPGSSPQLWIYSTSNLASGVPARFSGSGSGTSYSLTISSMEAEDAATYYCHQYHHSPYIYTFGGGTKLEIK . 0.909

What measured Ratio OD(Variant)/OD(WT) goes with KB001 mouse Fab VL T24I (Fab, V domains shown) VH: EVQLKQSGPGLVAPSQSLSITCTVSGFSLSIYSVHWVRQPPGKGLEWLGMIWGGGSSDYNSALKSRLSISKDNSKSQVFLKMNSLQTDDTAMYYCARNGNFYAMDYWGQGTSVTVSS VL: QIVLTQSPAIMSASLGERVTMTCIASSSVSSSFLHWYQQKPGSSPQLWIYSTSNLASGVPARFSGSGSGTSYSLTISSMEAEDAATYYCHQYHHSPYIYTFGGGTKLEIK ? 0.964

Which value of Ratio OD(Variant)/OD(WT) has been reported for KB001 mouse Fab VH S65T (Fab, V domains shown) VH: EVQLKQSGPGLVAPSQSLSITCTVSGFSLSIYSVHWVRQPPGKGLEWLGMIWGGGSSDYNSALKTRLSISKDNSKSQVFLKMNSLQTDDTAMYYCARNGNFYAMDYWGQGTSVTVSS VL: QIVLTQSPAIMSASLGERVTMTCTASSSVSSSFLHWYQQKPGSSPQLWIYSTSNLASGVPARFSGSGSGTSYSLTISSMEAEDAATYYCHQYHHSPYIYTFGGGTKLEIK in the records? 1.07

// query Ratio OD(Variant)/OD(WT) value for entry KB001 mouse Fab VH Y59K (Fab, V domains shown) VH: EVQLKQSGPGLVAPSQSLSITCTVSGFSLSIYSVHWVRQPPGKGLEWLGMIWGGGSSDKNSALKSRLSISKDNSKSQVFLKMNSLQTDDTAMYYCARNGNFYAMDYWGQGTSVTVSS VL: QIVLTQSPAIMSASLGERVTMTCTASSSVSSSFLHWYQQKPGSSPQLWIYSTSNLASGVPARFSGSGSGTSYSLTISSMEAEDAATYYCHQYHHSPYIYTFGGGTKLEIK 0.819

Record request: Ratio OD(Variant)/OD(WT) value, item KB001 mouse Fab VL S28H (Fab, V domains shown) VH: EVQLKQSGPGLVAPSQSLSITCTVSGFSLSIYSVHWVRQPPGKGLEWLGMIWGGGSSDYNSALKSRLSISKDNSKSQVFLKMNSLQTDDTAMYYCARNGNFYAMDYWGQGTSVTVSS VL: QIVLTQSPAIMSASLGERVTMTCTASSHVSSSFLHWYQQKPGSSPQLWIYSTSNLASGVPARFSGSGSGTSYSLTISSMEAEDAATYYCHQYHHSPYIYTFGGGTKLEIK 0.958
